organism: Mus musculus; experiment: Inhibitory activity against production of nitric oxide induced by interferon gamma in mouse macrophages; type: functional, organism-based
pIC50: −log10 of the molar value.
Measured metric: pIC50

[
  {
    "Compound": "C=CCOC(=O)[C@]12CCC(C)(C)CC1C1C(=O)C=C3[C@@]4(C)C=C(C#N)C(=O)C(C)(C)[C@@H]4CC[C@@]3(C)[C@]1(C)CC2 (some centres undefined)",
    "Censor symbol": "=",
    "Readout number": 8.88
  },
  {
    "Compound": "CC1(C)CC[C@]2(C(=O)N3CCOCC3)CC[C@]3(C)C(C(=O)C=C4[C@@]5(C)C=C(C#N)C(=O)C(C)(C)[C@@H]5CC[C@]43C)C2C1 (some centres undefined)",
    "Censor symbol": "=",
    "Readout number": 8.62
  },
  {
    "Compound": "CC1(C)CC[C@]2(C(=O)N3CCC(N4CCCCC4)CC3)CC[C@]3(C)C(C(=O)C=C4[C@@]5(C)C=C(C#N)C(=O)C(C)(C)[C@@H]5CC[C@]43C)C2C1 (some centres undefined)",
    "Censor symbol": "=",
    "Readout number": 9.00
  },
  {
    "Compound": "CC1(C)CC[C@]2(C(=O)O[C@@H]3O[C@H](CO)[C@@H](O)[C@H](O)[C@H]3O)CC[C@]3(C)C(C(=O)C=C4[C@@]5(C)C=C(C#N)C(=O)C(C)(C)[C@@H]5CC[C@]43C)C2C1 (some centres undefined)",
    "Censor symbol": "=",
    "Readout number": 8.00
  },
  {
    "Compound": "CC1(C)CC[C@]2(C(=O)n3cccn3)CC[C@]3(C)C(C(=O)C=C4[C@@]5(C)C=C(C#N)C(=O)C(C)(C)[C@@H]5CC[C@]43C)C2C1 (some centres undefined)",
    "Censor symbol": "=",
    "Readout number": 7.92
  },
  {
    "Compound": "CC1(C)CC[C@]2(C(=O)N3CCCCC3)CC[C@]3(C)C(C(=O)C=C4[C@@]5(C)C=C(C#N)C(=O)C(C)(C)[C@@H]5CC[C@]43C)C2C1 (some centres undefined)",
    "Censor symbol": "=",
    "Readout number": 9.02
  },
  {
    "Compound": "CC1(C)CC[C@]2(C(=O)n3ccnc3)CC[C@]3(C)[C@H](C(=O)C=C4[C@@]5(C)C=C(C#N)C(=O)C(C)(C)[C@@H]5CC[C@]43C)[C@@H]2C1",
    "Censor symbol": "=",
    "Readout number": 10.85
  },
  {
    "Compound": "CC1(C)CC[C@]2(C(N)=O)CC[C@]3(C)C(C(=O)C=C4[C@@]5(C)C=C(C#N)C(=O)C(C)(C)[C@@H]5CC[C@]43C)C2C1 (some centres undefined)",
    "Censor symbol": "=",
    "Readout number": 10.01
  },
  {
    "Compound": "COC(=O)[C@]12CCC(C)(C)CC1C1C(=O)C=C3[C@@]4(C)C=C(C(=O)O)C(=O)C(C)(C)[C@@H]4CC[C@@]3(C)[C@]1(C)CC2 (some centres undefined)",
    "Censor symbol": "=",
    "Readout number": 8.02
  },
  {
    "Compound": "CC1(C)CC[C@]2(C(=O)NCc3ccccc3)CC[C@]3(C)C(C(=O)C=C4[C@@]5(C)C=C(C#N)C(=O)C(C)(C)[C@@H]5CC[C@]43C)C2C1 (some centres undefined)",
    "Censor symbol": "=",
    "Readout number": 8.04
  },
  {
    "Compound": "CC1(C)CC[C@]2(C(=O)NN)CC[C@]3(C)C(C(=O)C=C4[C@@]5(C)C=C(C#N)C(=O)C(C)(C)[C@@H]5CC[C@]43C)C2C1 (some centres undefined)",
    "Censor symbol": "=",
    "Readout number": 9.59
  },
  {
    "Compound": "CNC(=O)[C@]12CCC(C)(C)CC1C1C(=O)C=C3[C@@]4(C)C=C(C#N)C(=O)C(C)(C)[C@@H]4CC[C@@]3(C)[C@]1(C)CC2 (some centres undefined)",
    "Censor symbol": "=",
    "Readout number": 9.24
  },
  {
    "Compound": "CC1(C)CC[C@]2(C#N)CC[C@]3(C)C(C(=O)C=C4[C@@]5(C)C=C(C#N)C(=O)C(C)(C)[C@@H]5CC[C@]43C)C2C1 (some centres undefined) [CDDO-CN]",
    "Censor symbol": "=",
    "Readout number": 11.46
  },
  {
    "Compound": "CC1(C)CC[C@]2(C(=O)O)CC[C@]3(C)C(=CC[C@@H]4[C@@]5(C)CC[C@H](O)C(C)(C)[C@@H]5CC[C@]43C)[C@@H]2C1 [OLEANOLIC_ACID]",
    "Censor symbol": "<",
    "Readout number": 4.40
  },
  {
    "Compound": "CC1(C)CC[C@]2(C(=O)OCC3CC3)CC[C@]3(C)C(C(=O)C=C4[C@@]5(C)C=C(C#N)C(=O)C(C)(C)[C@@H]5CC[C@]43C)C2C1 (some centres undefined)",
    "Censor symbol": "=",
    "Readout number": 8.35
  },
  {
    "Compound": "CCCNC(=O)[C@]12CCC(C)(C)CC1C1C(=O)C=C3[C@@]4(C)C=C(C#N)C(=O)C(C)(C)[C@@H]4CC[C@@]3(C)[C@]1(C)CC2 (some centres undefined)",
    "Censor symbol": "=",
    "Readout number": 8.82
  },
  {
    "Compound": "CCCCCCNC(=O)[C@]12CCC(C)(C)CC1C1C(=O)C=C3[C@@]4(C)C=C(C#N)C(=O)C(C)(C)[C@@H]4CC[C@@]3(C)[C@]1(C)CC2 (some centres undefined)",
    "Censor symbol": "=",
    "Readout number": 7.83
  },
  {
    "Compound": "CCCN(CCC)C(=O)[C@]12CCC(C)(C)CC1C1C(=O)C=C3[C@@]4(C)C=C(C#N)C(=O)C(C)(C)[C@@H]4CC[C@@]3(C)[C@]1(C)CC2 (some centres undefined)",
    "Censor symbol": "=",
    "Readout number": 7.48
  },
  {
    "Compound": "CC1(C)CC[C@]2(C(=O)OCc3ccccc3)CC[C@]3(C)C(C(=O)C=C4[C@@]5(C)C=C(C#N)C(=O)C(C)(C)[C@@H]5CC[C@]43C)C2C1 (some centres undefined)",
    "Censor symbol": "=",
    "Readout number": 8.36
  },
  {
    "Compound": "CC1(C)CC[C@]2(C#N)CC[C@]3(C)C(C(=O)C=C4[C@@]5(C)C=C(C(=O)O)C(=O)C(C)(C)[C@@H]5CC[C@]43C)C2C1 (some centres undefined)",
    "Censor symbol": "=",
    "Readout number": 8.77
  },
  {
    "Compound": "CCOC(=O)[C@]12CCC(C)(C)CC1C1C(=O)C=C3[C@@]4(C)C=C(C#N)C(=O)C(C)(C)[C@@H]4CC[C@@]3(C)[C@]1(C)CC2 (some centres undefined)",
    "Censor symbol": "=",
    "Readout number": 9.10
  },
  {
    "Compound": "COC(=O)[C@]12CCC(C)(C)C[C@H]1[C@H]1C(=O)C=C3[C@@]4(C)C=C(C#N)C(=O)C(C)(C)[C@@H]4CC[C@@]3(C)[C@]1(C)CC2 [BARDOXOLONE METHYL]",
    "Censor symbol": "=",
    "Readout number": 9.96
  },
  {
    "Compound": "CC1(C)CC[C@]2(C(=O)N3CCCC3)CC[C@]3(C)C(C(=O)C=C4[C@@]5(C)C=C(C#N)C(=O)C(C)(C)[C@@H]5CC[C@]43C)C2C1 (some centres undefined)",
    "Censor symbol": "=",
    "Readout number": 9.10
  },
  {
    "Compound": "CCCCOC(=O)[C@]12CCC(C)(C)CC1C1C(=O)C=C3[C@@]4(C)C=C(C#N)C(=O)C(C)(C)[C@@H]4CC[C@@]3(C)[C@]1(C)CC2 (some centres undefined)",
    "Censor symbol": "=",
    "Readout number": 8.18
  }
]

Value source: ChEMBL document CHEMBL1135965
